# ASSAYED TARGET: Human KDR (Homo sapiens, UniProt P35968)
# Construct: expressed in transfected cells; host or cells: NIH3T3 cells (mouse fibroblasts)
# Sequence (P35968 20-1356): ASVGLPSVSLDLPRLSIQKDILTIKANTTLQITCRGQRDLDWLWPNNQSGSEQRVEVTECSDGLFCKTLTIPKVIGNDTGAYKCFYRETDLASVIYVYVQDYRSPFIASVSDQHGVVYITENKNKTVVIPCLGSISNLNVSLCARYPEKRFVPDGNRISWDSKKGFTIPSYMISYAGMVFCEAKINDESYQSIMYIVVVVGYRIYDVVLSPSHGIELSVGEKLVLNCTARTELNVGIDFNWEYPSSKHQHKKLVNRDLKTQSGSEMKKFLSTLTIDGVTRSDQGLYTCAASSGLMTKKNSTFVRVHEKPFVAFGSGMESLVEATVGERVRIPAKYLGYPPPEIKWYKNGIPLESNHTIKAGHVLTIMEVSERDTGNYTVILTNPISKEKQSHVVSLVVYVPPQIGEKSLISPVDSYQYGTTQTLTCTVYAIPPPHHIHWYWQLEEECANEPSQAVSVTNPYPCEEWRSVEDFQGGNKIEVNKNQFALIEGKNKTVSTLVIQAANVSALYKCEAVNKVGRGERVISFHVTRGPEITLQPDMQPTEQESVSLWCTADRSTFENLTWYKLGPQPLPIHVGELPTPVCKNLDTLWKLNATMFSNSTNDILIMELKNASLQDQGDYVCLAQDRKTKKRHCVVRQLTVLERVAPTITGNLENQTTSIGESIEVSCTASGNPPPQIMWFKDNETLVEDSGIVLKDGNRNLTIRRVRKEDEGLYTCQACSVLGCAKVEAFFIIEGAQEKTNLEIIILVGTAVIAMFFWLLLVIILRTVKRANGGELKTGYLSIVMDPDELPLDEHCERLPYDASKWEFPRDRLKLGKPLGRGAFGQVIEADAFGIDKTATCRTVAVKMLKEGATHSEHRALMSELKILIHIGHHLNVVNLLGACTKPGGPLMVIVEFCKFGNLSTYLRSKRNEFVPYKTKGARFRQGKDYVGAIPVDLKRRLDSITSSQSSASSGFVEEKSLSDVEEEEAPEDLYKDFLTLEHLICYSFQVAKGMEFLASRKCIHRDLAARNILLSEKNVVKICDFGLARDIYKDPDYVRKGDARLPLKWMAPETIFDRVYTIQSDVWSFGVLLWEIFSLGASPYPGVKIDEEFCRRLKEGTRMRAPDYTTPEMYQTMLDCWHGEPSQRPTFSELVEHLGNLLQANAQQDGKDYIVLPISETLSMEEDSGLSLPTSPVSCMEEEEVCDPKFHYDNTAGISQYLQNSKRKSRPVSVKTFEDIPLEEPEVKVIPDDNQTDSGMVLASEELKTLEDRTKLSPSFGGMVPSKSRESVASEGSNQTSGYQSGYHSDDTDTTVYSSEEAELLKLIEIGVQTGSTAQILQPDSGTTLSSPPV
# PROTOCOL DESCRIPTION: Inhibition of KDR phosphorylation in human KDR-transfected NIH3T3 cells (ELISA);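 note: class 2 means ratio of 10 or more and class 3 means 50 or more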
# Format: cell-based
# STUDY CONDITIONS: class 0-3
As shown below, each of these compounds has a reported Selection ratio (KDR phosphorylation IC50 / c-fms phosphorylation IC50) value.

Reference set (4 entries):
[
  {
    "COMPOUND": "COc1cc2nccc(Oc3cc(C)c(NC(=O)N[C@H](C)c4nccs4)cc3C)c2cc1OC",
    "REPORTED MEASUREMENT": "2 (when the value was 10 or more)"
  },
  {
    "COMPOUND": "COc1cc2nccc(Oc3ccc(NC(=O)N[C@H](C)c4nccs4)c(F)c3)c2cc1OC",
    "REPORTED MEASUREMENT": "1 (when the value was 5 or more)"
  },
  {
    "COMPOUND": "COc1cc2nccc(Oc3ccc(NC(=O)N[C@@H](C)c4nccs4)c(C(F)(F)F)c3)c2cc1OC",
    "REPORTED MEASUREMENT": "3 (when the value was 50 or more)"
  },
  {
    "COMPOUND": "COc1cc2nccc(Oc3ccc(NC(=O)NC(C)c4nccs4)cc3)c2cc1OC (centres unmarked)",
    "REPORTED MEASUREMENT": "2 (when the value was 10 or more)"
  }
]

Please look at the following compound next.
The compound listed as `COc1ccc([C@H](C)NC(=O)Nc2ccc(Oc3ccnc4cc(OC)c(OC)cc34)cc2)cc1` has a reported Selection ratio (KDR phosphorylation IC50 / c-fms phosphorylation IC50) of 2 (when the value was 10 or more)
